Consider the following molecules; for each one, report its pIC50.
experimental_target: Full length wild-type cereblon CRBN (Homo sapiens, UniProt Q96SW2)
Construct: Full length wild-type cereblon CRBN (80.0 nM, 10 μL) was incubated in assay buffer
Sequence (Q96SW2 whole entry): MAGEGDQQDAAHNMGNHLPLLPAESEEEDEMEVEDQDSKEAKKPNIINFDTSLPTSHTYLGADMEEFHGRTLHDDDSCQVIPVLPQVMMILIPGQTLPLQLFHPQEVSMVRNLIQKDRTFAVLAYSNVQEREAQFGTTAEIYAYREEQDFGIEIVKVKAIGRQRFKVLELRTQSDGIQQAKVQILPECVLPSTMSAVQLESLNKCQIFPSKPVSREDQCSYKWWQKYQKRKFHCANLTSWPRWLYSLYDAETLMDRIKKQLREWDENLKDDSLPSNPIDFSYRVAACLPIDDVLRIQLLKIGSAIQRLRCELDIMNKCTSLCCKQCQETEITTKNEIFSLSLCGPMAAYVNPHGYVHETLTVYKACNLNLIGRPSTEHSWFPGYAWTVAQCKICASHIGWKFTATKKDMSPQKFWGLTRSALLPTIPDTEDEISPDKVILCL
assay_method_text: Fluorescence polarization (FP) assay, cereblon binding
condition_summary: bounds stated in the text lists b2059-b2061; read-out: IC50 value
pIC50: −log10 of the molar value.

Ask: Looking for the measured pIC50 of CC(NC(=O)OCc1ccc2c(c1)C(=O)N(C1CCC(=O)NC1=O)C2)c1ccccc1 (stereo not drawn) , can you help?
Reply: > 5.77

Ask: Looking for the measured pIC50 of CC(C)(C)C12CC(NC(=O)OCc3ccc4c(c3)C(=O)N(C3CCC(=O)NC3=O)C4)(C1)C2 (stereo not drawn) , can you help?
Reply: > 5.96

Ask: Looking for the measured pIC50 of O=C1CCC(N2Cc3ccc(COC(=O)Nc4ccc5c(c4)CCO5)cc3C2=O)C(=O)N1 (stereo not drawn) , can you help?
Reply: > 5.96

Ask: Looking for the measured pIC50 of CC(C)(C)c1ccc(NC(=O)OCc2ccc3c(c2)C(=O)N(C2CCC(=O)NC2=O)C3)nc1 (stereo not drawn) , can you help?
Reply: > 5.96

Ask: Looking for the measured pIC50 of CC1(C)COc2cc(NC(=O)OCc3ccc4c(c3)C(=O)N(C3CCC(=O)NC3=O)C4)ccc21 (stereo not drawn) , can you help?
Reply: > 5.77

Ask: Looking for the measured pIC50 of O=C1CCC(N2Cc3ccc(COC(=O)Nc4cc(CN5CC6CC5CO6)cc(OC(F)F)c4)cc3C2=O)C(=O)N1 (stereo not drawn) , can you help?
Reply: > 5.77

Ask: Looking for the measured pIC50 of Cc1c(F)cc(NC(=O)OCc2ccc3c(c2)C(=O)N(C2CCC(=O)NC2=O)C3)cc1F (stereo not drawn) , can you help?
Reply: > 5.77

Ask: Looking for the measured pIC50 of O=C1CCC(N2Cc3ccc(COC(=O)Nc4cnc(N5CCCCC5)c(F)c4)cc3C2=O)C(=O)N1 (stereo not drawn) , can you help?
Reply: > 5.77

Ask: Looking for the measured pIC50 of O=C1CCC(N2Cc3ccc(COC(=O)Nc4ccc(C5CC5)nc4)cc3C2=O)C(=O)N1 (stereo not drawn) , can you help?
Reply: > 5.96

Ask: Looking for the measured pIC50 of Cc1c(Cl)cc(NC(=O)OCc2ccc3c(c2)C(=O)N(C2CCC(=O)NC2=O)C3)cc1OCCN1CCOCC1 (stereo not drawn) , can you help?
Reply: > 5.77

Ask: Looking for the measured pIC50 of Cc1cc(C#N)cc(NC(=O)OCc2ccc3c(c2)C(=O)N(C2CCC(=O)NC2=O)C3)c1 (stereo not drawn) , can you help?
Reply: > 5.96

Ask: Looking for the measured pIC50 of O=C1CCC(N2Cc3ccc(COC(=O)Nc4cc(OCCN5CCOCC5)cc(OC(F)(F)F)c4)cc3C2=O)C(=O)N1 (stereo not drawn) , can you help?
Reply: > 5.77

====

experimental_target: Full length wild-type cereblon CRBN (Homo sapiens, UniProt Q96SW2)
Construct: Full length wild-type cereblon CRBN (80.0 nM, 10 μL) was incubated in assay buffer
assay_method_text: Fluorescence polarization (FP) assay, cereblon binding
condition_summary: cereblon binding, class code; read-out: rFP IC50
pIC50: −log10 of the molar value.
Consider the following molecules; for each one, report its pIC50.

Ask: Looking for the measured pIC50 of CC(NC(=O)OCc1ccc2c(c1)C(=O)N(C1CCC(=O)NC1=O)C2)c1ccccc1 (stereo not drawn) , can you help?
Reply: 5.96 to 6.30

Ask: Looking for the measured pIC50 of CC1COc2cc(NC(=O)OCc3ccc4c(c3)C(=O)N(C3CCC(=O)NC3=O)C4)ccc21 (stereo not drawn) , can you help?
Reply: 5.96 to 6.30

Ask: Looking for the measured pIC50 of COc1cc(Cl)ccc1NC(=O)OCc1ccc2c(c1)C(=O)N(C1CCC(=O)NC1=O)C2 (stereo not drawn) , can you help?
Reply: 5.96 to 6.30

The values you see were collected from patent US20230348418A1.
